Listing: Affinity of selected molecules
target: Progesterone receptor (Homo sapiens); assay: Relative binding affinity for human progesterone receptor in MCF-7 cell cytosols compared to Org 2058; type: cell-based
Measurement Type: Affinity (%)

[[record]]
molecule = "C[C@]12C[C@H](c3ccc4c(c3)OCO4)C3=C4CCC(=O)C=C4CCC3C1CC[C@@]2(O)C#Cc1ccc(S(C)(=O)=O)cc1 (stereo partly drawn)"
measurement_type = "Affinity"
test_value = 0.4

[[record]]
molecule = "C[C@]12C[C@H](c3ccc4c(c3)OCCO4)C3=C4CCC(=O)C=C4CCC3C1CC[C@@]2(O)C#Cc1ccc(N2CCCC2=O)cc1 (stereo partly drawn)"
measurement_type = "Affinity"
test_value = 0.2

[[record]]
molecule = "CN(C)c1ccc(C#C[C@]2(O)CCC3C4CCC5=CC(=O)CCC5=C4[C@@H](c4ccc(N(C)C)cc4)C[C@@]32C)cc1 (stereo partly drawn)"
measurement_type = "Affinity"
test_value = 1.7

